Experimental Details: Chemical hydrolysis in PBS, pH 7.3
Type: physicochemical
Experimental Setup: removal of first masking unit (half-lives of 3); PBS pH 7.3, 37 °C
# t1/2(1) PBS, pH=7.3 listing for each entry below
The answer is to be given in h; state only the numeric part.

| Compound | Reported Endpoint | Value Observed |
| --- | --- | --- |
| CCCCCCC(=O)Oc1ccc(COP(=O)(OCc2ccc(OC(=O)CCCCCC)cc2)OP(=O)(O)OP(=O)(O)OC[C@@H]2C=C[C@H](n3cc(C)c(=O)[nH]c3=O)O2)cc1 [3d, γ-Bis-(4-heptanoyloxybenzyl)-d4TTP] | t1/2(1) PBS, pH=7.3 | 26 |
| CCCCCCCC/C=C\CCCCCCCC(=O)Oc1ccc(COP(=O)(OCc2ccc(OC(=O)CCCCCCC/C=C\CCCCCCCC)cc2)OP(=O)(O)OP(=O)(O)OC[C@@H]2C=C[C@H](n3cc(C)c(=O)[nH]c3=O)O2)cc1 [3k] | t1/2(1) PBS, pH=7.3 | 27 |

Need t1/2(1) PBS, pH=7.3, item CCCCCCCCOC(=O)Oc1ccc(COP(=O)(OCc2ccc(OC(=O)OCCCCCCCC)cc2)OP(=O)(O)OP(=O)(O)OC[C@@H]2C=C[C@H](n3cc(C)c(=O)[nH]c3=O)O2)cc1 [3m] 82

---

Experimental Details: Chemical hydrolysis in PBS, pH 7.3
Format: physicochemical
Experimental Setup: second hydrolysis step, half-lives of intermediate 4 to give d4TTP 19; PBS pH 7.3, 37 °C
# label = 1 if t1/2(2) PBS, pH=7.3 >= 500 h else -1

For orientation, consider the following solved cases.
| Compound Structure String | Label |
| --- | --- |
| CCCCCCCCCCCCCCCC(=O)Oc1ccc(COP(=O)(OCc2ccc(OC(=O)CCCCCCCCCCCCCCC)cc2)OP(=O)(O)OP(=O)(O)OC[C@@H]2C=C[C@H](n3cc(C)c(=O)[nH]c3=O)O2)cc1 | -1 |
| CCCCCCCCCCCCOC(=O)Oc1ccc(COP(=O)(OCc2ccc(OC(=O)OCCCCCCCCCCCC)cc2)OP(=O)(O)OP(=O)(O)OC[C@@H]2C=C[C@H](n3cc(C)c(=O)[nH]c3=O)O2)cc1 | 1 |

Please check the record CCCCCCC(=O)Oc1ccc(COP(=O)(OCc2ccc(OC(=O)CCCCCC)cc2)OP(=O)(O)OP(=O)(O)OC[C@@H]2C=C[C@H](n3cc(C)c(=O)[nH]c3=O)O2)cc1 and state if its t1/2(2) PBS, pH=7.3 is at or above 500 h. -1

Please check the record CCCCCCCCCCCC(=O)Oc1ccc(COP(=O)(OCc2ccc(OC(=O)CCCCCCCCCCC)cc2)OP(=O)(O)OP(=O)(O)OC[C@@H]2C=C[C@H](n3cc(C)c(=O)[nH]c3=O)O2)cc1 and state if its t1/2(2) PBS, pH=7.3 is at or above 500 h. -1

Please check the record CCCCCCCCOC(=O)Oc1ccc(COP(=O)(OCc2ccc(OC(=O)OCCCCCCCC)cc2)OP(=O)(O)OP(=O)(O)OC[C@@H]2C=C[C@H](n3cc(C)c(=O)[nH]c3=O)O2)cc1 and state if its t1/2(2) PBS, pH=7.3 is at or above 500 h. 1

The measurements presented in this section are drawn from paper PMC4640093.
